Field: log10 of deltaTm. Provide a value for each of the compounds that follow.
Test system: UDP-3-O-acyl-N-acetylglucosamine deacetylase (Pseudomonas aeruginosa (strain ATCC 15692 / PAO1 / 1C / PRS 101 / LMG12228)), P47205 [C40S]
Sequence (P47205 whole entry C40S): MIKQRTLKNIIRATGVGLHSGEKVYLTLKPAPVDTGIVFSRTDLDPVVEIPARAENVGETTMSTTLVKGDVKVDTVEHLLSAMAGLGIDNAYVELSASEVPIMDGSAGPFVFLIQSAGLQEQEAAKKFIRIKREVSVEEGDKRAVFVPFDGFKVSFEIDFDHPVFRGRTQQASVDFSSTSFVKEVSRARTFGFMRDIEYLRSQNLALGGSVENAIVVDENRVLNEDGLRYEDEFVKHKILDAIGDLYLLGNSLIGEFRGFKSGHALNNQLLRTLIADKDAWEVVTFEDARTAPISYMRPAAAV
Conditions: 25 uM
The figures below represent log10 of deltaTm, where deltaTm is stated in K.

Any idea what log10 of deltaTm was measured for CN1CC(C#CC#Cc2cc3n(c2)C(=O)N(CC[C@](C)(C(=O)NO)S(C)(=O)=O)C3)C1 ?
1.00

Any idea what log10 of deltaTm was measured for C[C@@](CCN1Cc2cc(C#CC#CC3(CN)CC3)cn2C1=O)(C(=O)NO)S(C)(=O)=O ?
1.03

Any idea what log10 of deltaTm was measured for C[C@@](CCN1Cc2cc(C#CC#CC3(F)CNC3)cn2C1=O)(C(=O)NO)S(C)(=O)=O ?
1.00

Any idea what log10 of deltaTm was measured for CN1CC(C#CC#Cc2cc3n(c2)C(=O)N(CC[C@](C)(C(N)=O)S(C)(=O)=O)C3)C1 ?
-0.52

Any idea what log10 of deltaTm was measured for C[C@@](CCN1Cc2cc(C#CC#CC3(N)CC3)cn2C1=O)(C(=O)NO)S(C)(=O)=O ?
1.06

Any idea what log10 of deltaTm was measured for CCN1CC(C#CC#Cc2cc3n(c2)C(=O)N(CC[C@](C)(C(=O)NO)S(C)(=O)=O)C3)C1 ?
1.02

Any idea what log10 of deltaTm was measured for CN1CCC(F)(C#CC#Cc2cc3n(c2)C(=O)N(CC[C@](C)(C(=O)NO)S(C)(=O)=O)C3)CC1 ?
1.08

Any idea what log10 of deltaTm was measured for CN(C)C1(C#CC#Cc2cc3n(c2)C(=O)N(CC[C@](C)(C(=O)NO)S(C)(=O)=O)C3)CC1 ?
1.13

Any idea what log10 of deltaTm was measured for C[C@@](CCN1Cc2cc(C#CC#CC3CN(CCO)C3)cn2C1=O)(C(=O)NO)S(C)(=O)=O ?
1.05

Any idea what log10 of deltaTm was measured for CC(C)N1CC(C#CC#Cc2cc3n(c2)C(=O)N(CC[C@](C)(C(=O)NO)S(C)(=O)=O)C3)C1 ?
1.05

Any idea what log10 of deltaTm was measured for C[C@@](CCN1Cc2cc(C#CC#CC3CN(CCF)C3)cn2C1=O)(C(=O)NO)S(C)(=O)=O ?
1.11

Any idea what log10 of deltaTm was measured for C[C@@](CCN1Cc2cc(C#CC#CC3CNC3)cn2C1=O)(C(=O)NO)S(C)(=O)=O ?
0.97

Any idea what log10 of deltaTm was measured for C[C@@](CCN1Cc2cc(C#CC#CC3CN(CC(F)F)C3)cn2C1=O)(C(=O)NO)S(C)(=O)=O ?
1.12

Any idea what log10 of deltaTm was measured for C[C@@](CCN1Cc2cc(C#CC#CC3CCN(C4COC4)CC3)cn2C1=O)(C(=O)NO)S(C)(=O)=O ?
1.12

Any idea what log10 of deltaTm was measured for C[C@@](CCN1Cc2cc(C#CC#CC3CN(C4COC4)C3)cn2C1=O)(C(=O)NO)S(C)(=O)=O ?
1.10

Any idea what log10 of deltaTm was measured for CNC1(C#CC#Cc2cc3n(c2)C(=O)N(CC[C@](C)(C(=O)NO)S(C)(=O)=O)C3)CC1 ?
1.09

Any idea what log10 of deltaTm was measured for CN1CCC(C#CC#Cc2cc3n(c2)C(=O)N(CC[C@](C)(C(=O)NO)S(C)(=O)=O)C3)CC1 ?
1.05
